# Method notes: chemical genetic growth profiling, strain panel (AID 1159580);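 also: tested at 20 µM; growth read once vehicle control cultures reached saturation at 30 °C; lower values mean less growth of the strain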
# Test context: S. cerevisiae deletion strains, growth OD, locus YJL164C, strain tpk1
Screen size: about 5,500 compounds; about 2,000 (36%) were called active. About 18% were inconclusive and are not listed. Rule as the data show it: active = normalized growth mostly below about 0.91 (no sharp cut-off); inconclusive = no clear call, values can overlap the other calls; inactive = mostly above about 0.92. Some of the results follow.
Classes used: active, inactive

| Compound | Label |
| --- | --- |
| Cc1cc(C2CCCCC2)n(O)c(=O)c1 | active |
| O=c1c(O)c(-c2ccc(O)c(O)c2)oc2c(O)c(O)cc(O)c12 | inactive |
| CC1O[C@@H](Oc2c(-c3ccc(O)c(O)c3)oc3cc(O)cc(O)c3c2=O)[C@H](O)[C@H](O)[C@H]1O (stereo partly drawn) | inactive |
| C[C@@H]1O[C@@H](OC[C@H]2OC(Oc3c(-c4ccc(O)c(O)c4)oc4cc(O)cc(O)c4c3=O)[C@H](O)[C@@H](O)[C@@H]2O)[C@H](O)[C@H](O)[C@H]1O (stereo partly drawn) | inactive |
| O=c1cc(-c2ccc(O)cc2)oc2cc(O[C@@H]3O[C@H](CO)[C@@H](O)[C@H](O)[C@H]3O)cc(O)c12 | inactive |
| COc1ccc(-c2oc3cc(O[C@H]4O[C@H](CO)[C@@H](O)[C@H](O)[C@H]4O)c(OC)c(O)c3c(=O)c2OC)cc1O | inactive |
| O=c1c(O)c(-c2ccc(O)c(O)c2)oc2cc(O)cc(O)c12 | active |
| O=c1c(O)c(-c2ccc(O)c(O)c2)oc2c(O[C@@H]3O[C@H](CO)[C@H](O)[C@@H](O)[C@H]3O)c(O)cc(O)c12 | inactive |

The measured values listed here are drawn from PubChem BioAssay AID1159580.
